- Assay Target: T1, human GPC3 (Glypican-3) (human, UniProt P51654 25-580)
- T1 construct: whole, on cells; The cell line of each value is named under assay
- T1 sequence (P51654 25-580, form in doubt): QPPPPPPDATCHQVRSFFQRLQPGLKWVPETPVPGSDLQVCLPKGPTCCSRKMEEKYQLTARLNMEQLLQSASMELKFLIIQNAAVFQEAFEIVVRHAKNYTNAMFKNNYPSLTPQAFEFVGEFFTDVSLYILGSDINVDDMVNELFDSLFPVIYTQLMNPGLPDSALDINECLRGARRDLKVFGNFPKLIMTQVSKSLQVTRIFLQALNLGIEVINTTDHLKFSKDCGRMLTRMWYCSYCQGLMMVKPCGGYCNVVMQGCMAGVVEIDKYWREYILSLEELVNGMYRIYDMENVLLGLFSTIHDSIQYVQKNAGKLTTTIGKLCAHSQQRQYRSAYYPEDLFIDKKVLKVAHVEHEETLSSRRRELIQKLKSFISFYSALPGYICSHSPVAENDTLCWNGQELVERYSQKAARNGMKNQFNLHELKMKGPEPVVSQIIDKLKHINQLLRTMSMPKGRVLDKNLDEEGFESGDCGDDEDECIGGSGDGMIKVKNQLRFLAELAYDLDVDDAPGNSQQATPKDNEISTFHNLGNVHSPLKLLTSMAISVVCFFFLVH
- Assay Name: FACS on Huh7 liver cancer cells
Could you please report measured EC50 for the items listed next?
One number for each entry, in µg/mL.

Go through the list and state EC50 for each entry.
1. Hu 52H5D3B8-8-mc-AAQ-Exatecan (ADC-3) (antibody, human IgG1, kappa, DAR 8.0, V domains shown, mc-AAQ-Exatecan on cysteine thiols freed by reduction of interchain disulfide bonds; DAR 8.0 for the whole antibody; positions not given, also called Hu 52H5D3B8-8-MC-AAQ-Exa (ADC-3)) VH: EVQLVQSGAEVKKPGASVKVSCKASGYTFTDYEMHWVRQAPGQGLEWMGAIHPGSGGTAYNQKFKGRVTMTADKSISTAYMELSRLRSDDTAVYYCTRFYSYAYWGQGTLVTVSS VL: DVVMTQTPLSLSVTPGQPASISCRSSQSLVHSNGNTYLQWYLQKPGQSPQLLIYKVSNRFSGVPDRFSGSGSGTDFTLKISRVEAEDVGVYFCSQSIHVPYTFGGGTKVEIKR
2. Hu 52H5D3B8-8 (antibody, human IgG1, kappa, V domains shown, also called humanized GPC3 antibody Hu 52H5D3B8-8; GPC3 antibody) VH: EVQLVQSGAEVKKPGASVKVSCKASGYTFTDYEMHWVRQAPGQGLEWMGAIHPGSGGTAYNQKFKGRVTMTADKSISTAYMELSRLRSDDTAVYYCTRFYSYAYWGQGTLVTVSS VL: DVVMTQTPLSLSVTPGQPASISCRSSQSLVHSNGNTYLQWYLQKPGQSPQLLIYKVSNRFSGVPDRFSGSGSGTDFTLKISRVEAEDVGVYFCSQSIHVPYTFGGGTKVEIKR
3. Hu 52H5D3B8-8-mcc-AAN-Exatecan (ADC-2) (antibody, human IgG1, kappa, DAR 8.0, V domains shown, mcc-AAN-Exatecan on cysteine thiols freed by reduction of interchain disulfide bonds; DAR 8.0 for the whole antibody; positions not given, also called Hu 52H5D3B8-8-MCC-AAN-Exa (ADC-2)) VH: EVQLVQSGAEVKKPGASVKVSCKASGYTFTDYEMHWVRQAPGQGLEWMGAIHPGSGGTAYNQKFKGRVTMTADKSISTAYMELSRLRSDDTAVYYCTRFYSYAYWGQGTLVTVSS VL: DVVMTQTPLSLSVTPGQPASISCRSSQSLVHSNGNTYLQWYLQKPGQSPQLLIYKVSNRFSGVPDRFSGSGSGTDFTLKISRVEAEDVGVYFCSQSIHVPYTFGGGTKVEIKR
4. Hu 52H5D3B8-8-mc-AAN-Exatecan (ADC-1) (antibody, human IgG1, kappa, DAR 8.0, V domains shown, mc-AAN-Exatecan on cysteine thiols freed by reduction of interchain disulfide bonds; DAR 8.0 for the whole antibody; positions not given, also called Hu 52H5D3B8-8-MC-AAN-Exa (ADC-1)) VH: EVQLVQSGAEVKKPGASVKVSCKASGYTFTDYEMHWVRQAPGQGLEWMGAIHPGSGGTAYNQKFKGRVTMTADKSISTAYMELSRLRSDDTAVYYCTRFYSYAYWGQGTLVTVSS VL: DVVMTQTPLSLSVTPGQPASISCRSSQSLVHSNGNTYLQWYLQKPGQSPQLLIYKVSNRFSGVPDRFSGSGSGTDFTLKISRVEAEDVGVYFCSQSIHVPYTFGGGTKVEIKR

Result string:
1: 0.0633; 2: 0.0569; 3: 0.061; 4: 0.0673

// data source = patent EP4775226A1
